# tgt: SIRT1 (Homo sapiens, UniProt Q96EB6)
# protocol: Trp mass spectrometry assay of SIRT1 activity
# Type: biochemical
# particulars: concentration of test compound giving 150% activation of SIRT1; Trp peptide substrate
endpointName: Trp EC1.5 (μM)

Some compounds with known Trp EC1.5 (μM) results, for comparison:
compound="Cc1csc(NC(=O)c2cnc3ccc(-c4ccccc4C(F)(F)F)nn23)n1 [Compound 152]" val="A (EC1.5<1 μM)"
compound="O=C(Nc1cccc(CN2CCOCC2)n1)c1cnc2ccc(-c3cccc(Cl)c3F)nn12 [Compound 140]" val="B (EC1.5 1-25 μM)"
compound="O=C(Nc1ccnc(OCC(O)CO)n1)c1cnc2ccc(-c3ccccc3C(F)(F)F)nn12 (centres unmarked) [Compound 74]" val="A (EC1.5<1 μM)"
compound="Cc1cc(-c2ccccc2C(F)(F)F)nn2c(C(=O)Nc3cccc(N4CCOCC4)n3)cnc12 [Compound 192]" val="A (EC1.5<1 μM)"

Case O=C(Nc1cnc2ccc(-c3ccccc3C(F)(F)F)nn12)c1cccnc1OCC(O)CO (centres unmarked) [Compound 146] , SIRT1 (Homo sapiens, UniProt Q96EB6), Trp EC1.5 (μM) recorded as B (EC1.5 1-25 μM)

Assay SIRT1 (Homo sapiens, UniProt Q96EB6), sample Cn1cc(-c2ccc3ncc(C(=O)Nc4cccc(N5CCOCC5)n4)n3n2)cn1 [Compound 56] , Trp EC1.5 (μM) read: B (EC1.5 1-25 μM)

Tested on SIRT1 (Homo sapiens, UniProt Q96EB6), the item O=C(Nc1ccnc(N2CCC2)c1)c1cnc2ccc(-c3ccccc3C(F)(F)F)nn12 [Compound 50] showed Trp EC1.5 (μM) equal to A (EC1.5<1 μM)

###

# tgt: SIRT1 (Homo sapiens, UniProt Q96EB6)
# protocol: TAMRA based mass spectrometry assay of SIRT1 activity
# Type: biochemical
# particulars: TAMRA assay; concentration giving 150% activation of SIRT1
endpointName: TAMRA EC1.5 (μM)

structuresmilesstring=Cc1ccc(NC(=O)c2c(C)nc3ccc(-c4ccccc4Cl)nn23)nn1 val="A (EC1.5<1 μM)"
structuresmilesstring=Cc1nccc(C(=O)Nc2cnn3ccc(-c4ccccc4OC(F)(F)F)nc23)n1 val="A (EC1.5<1 μM)"
structuresmilesstring=O=C(Nc1cnc2ccc(-c3ccccc3C(F)(F)F)nn12)c1cscn1 val="A (EC1.5<1 μM)"
structuresmilesstring=N#Cc1ccccc1-c1ccc2ncc(C(=O)Nc3cccc(CN4CCOCC4)n3)n2n1 val="B (EC1.5 1-25 μM)"
structuresmilesstring=Cc1nc(C(=O)Nc2cnn3ccc(-c4ccccc4OC(F)(F)F)nc23)c(C)s1 val="B (EC1.5 1-25 μM)"
structuresmilesstring=O=C(Nc1cnc2ccc(-c3ccccc3C(F)(F)F)nn12)c1ccnc(CN2CCCC2)c1 val="C (EC1.5>25 μM)"

Field TAMRA EC1.5 (μM) (entry `Cc1cnc(NC(=O)c2c(C)nc3ccc(-c4ccccc4OC[C@H](O)CO)nn23)s1` ) reads A (EC1.5<1 μM)

Per the record, `Cc1ccc(NC(=O)c2cnn3ccc(-c4ccccc4C(F)(F)F)nc23)cn1` has TAMRA EC1.5 (μM) of A (EC1.5<1 μM)

Briefly, TAMRA EC1.5 (μM) measured for `O=C(Nc1cnn2ccc(-c3ccccc3C(F)(F)F)nc12)c1cccc(-n2cnnc2)n1` : A (EC1.5<1 μM)

Entry under test: `O=C(Nc1cccnc1N1CCOCC1)c1cnc2ccc(-c3ccccc3C(F)(F)F)nn12` . Its TAMRA EC1.5 (μM) was C (EC1.5>25 μM)

Measured TAMRA EC1.5 (μM) of `Cc1cc2ncc(C(=O)Nc3cccnc3)n2nc1-c1ccccc1C(F)(F)F` : B (EC1.5 1-25 μM)

TAMRA EC1.5 (μM) in this record for `O=C(Nc1cnn2ccc(-c3ccccc3C(F)(F)F)nc12)c1cnc(O)cn1` : A (EC1.5<1 μM)

TAMRA EC1.5 (μM) for `Cc1cc(NC(=O)c2cnn3ccc(-c4ccccc4C(F)(F)F)nc23)ccn1` is A (EC1.5<1 μM)

Measured TAMRA EC1.5 (μM), `Cc1ncccc1NC(=O)c1cnn2ccc(-c3ccccc3OC(F)(F)F)nc12` : B (EC1.5 1-25 μM)

// TAMRA EC1.5 (μM) value for `COCCOc1cc(NC(=O)c2cnc3c(C)cc(-c4ccccc4C(F)(F)F)nn23)ncn1` : A (EC1.5<1 μM)

The measured TAMRA EC1.5 (μM) associated with `Cc1cc(NC(=O)c2c(O)nc3ccc(-c4ccccc4C(F)(F)F)nn23)cc(C)n1` reads C (EC1.5>25 μM)

// TAMRA EC1.5 (μM) lookup, molecule = `Cc1ccc(NC(=O)c2cnn3ccc(-c4ccccc4OC(F)(F)F)nc23)nn1` , result: A (EC1.5<1 μM)

###

# tgt: UniProt:Q96EB6
# Sequence (Q96EB6 1-747): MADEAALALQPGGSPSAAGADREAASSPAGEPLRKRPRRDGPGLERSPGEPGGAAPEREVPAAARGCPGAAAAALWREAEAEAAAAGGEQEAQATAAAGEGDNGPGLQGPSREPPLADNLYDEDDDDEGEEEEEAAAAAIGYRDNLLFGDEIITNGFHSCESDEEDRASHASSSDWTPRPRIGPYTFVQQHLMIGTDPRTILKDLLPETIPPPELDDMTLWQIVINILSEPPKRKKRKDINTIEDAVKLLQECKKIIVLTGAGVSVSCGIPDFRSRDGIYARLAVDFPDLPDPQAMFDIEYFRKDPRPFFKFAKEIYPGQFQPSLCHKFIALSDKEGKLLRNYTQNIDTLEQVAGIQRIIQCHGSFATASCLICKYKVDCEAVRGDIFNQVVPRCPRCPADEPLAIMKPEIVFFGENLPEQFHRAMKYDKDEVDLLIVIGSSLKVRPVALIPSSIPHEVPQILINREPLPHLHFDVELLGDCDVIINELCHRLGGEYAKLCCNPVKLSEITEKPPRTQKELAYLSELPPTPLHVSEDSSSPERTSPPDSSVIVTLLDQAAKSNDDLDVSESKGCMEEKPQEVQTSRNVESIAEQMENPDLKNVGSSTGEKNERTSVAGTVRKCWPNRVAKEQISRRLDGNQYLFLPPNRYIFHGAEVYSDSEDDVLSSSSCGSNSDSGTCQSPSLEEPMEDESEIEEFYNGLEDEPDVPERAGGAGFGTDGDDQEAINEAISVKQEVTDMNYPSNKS
# protocol: TAMRA based mass spectrometry assay of SIRT1 activity
# Format: biochemical
# particulars: TAMRA assay; concentration giving 150% activation of SIRT1
endpointName: TAMRA EC1.5 (μM)

structuresmilesstring=N#Cc1ccccc1-c1ccc2ncc(C(=O)Nc3ccnc(N4CCC4)c3)n2n1 val="B (EC1.5 1-25 μM)"
structuresmilesstring=Cc1cncc(NC(=O)c2cnn3ccc(-c4ccccc4C(F)(F)F)nc23)c1 val="A (EC1.5<1 μM)"
structuresmilesstring=O=C(Nc1cnc2ccc(-c3ccccc3Cl)nn12)c1nccs1 val="B (EC1.5 1-25 μM)"
structuresmilesstring=Cc1cc(C)nc(C(=O)Nc2cnn3ccc(-c4ccccc4OC(F)(F)F)nc23)n1 val="A (EC1.5<1 μM)"
structuresmilesstring=O=C(Nc1ccncn1)c1cnn2ccc(-c3ccccc3C(F)(F)F)nc12 val="A (EC1.5<1 μM)"

Field TAMRA EC1.5 (μM) (entry `Cc1nc(C(=O)Nc2cnc3ccc(-c4ccccc4F)nn23)cs1` ) reads B (EC1.5 1-25 μM)

Measured TAMRA EC1.5 (μM), `Cc1nn2ccc(-c3ccccc3C(F)(F)F)nc2c1C(=O)Nc1ccncc1F` : A (EC1.5<1 μM)

Form field TAMRA EC1.5 (μM), entry `Cc1nn2ccc(-c3ccccc3C(F)(F)F)nc2c1C(=O)Nc1ccnc(O)c1` : A (EC1.5<1 μM)

###

# tgt: SIRT1 (Homo sapiens, UniProt Q96EB6)
# protocol: TAMRA based mass spectrometry assay of SIRT1 activity
# Type: biochemical
# particulars: TAMRA peptide substrate; percent maximum fold activation; read-out: TAMRA % Fold Act
Listed here: items and their measured Emax.

molecule=O=C(Nc1cccc(N2CC3(CCO3)C2)n1)c1cnc2ccc(-c3ccccc3C(F)(F)F)nn12 val="≥ 350%"
molecule=O=C(Nc1cnc2ccc(N3CC[C@H](F)C3)nn12)c1ccccn1 val="< 350%"
molecule=COc1cccc(NC(=O)c2c(C)nn3ccc(-c4ccccc4C(F)(F)F)nc23)n1 val="≥ 350%"
molecule=Cc1cc2ncc(NC(=O)c3cccc(N4CCC4)n3)n2nc1-c1ccccc1C(F)(F)F val="≥ 350%"
molecule=Cc1cc2ncc(NC(=O)c3ncccn3)n2nc1-c1ccccc1C(F)(F)F val="≥ 350%"

Kindly review the next molecule as well.
Measured Emax (SIRT1 (Homo sapiens, UniProt Q96EB6)), entry `Cc1nc2c(C)cc(-c3ccccc3C(F)(F)F)nn2c1C(=O)Nc1cccc(N2CC3(CCO3)C2)n1` : ≥ 350%
